target: UniProt Q00788; assay: Activity at vasopressin V2 receptor in rat kidney membranes assessed as adenylate cyclase activity; format: functional, cell membranes; details: Membrane, filed as agonist
Positions of bridges follow the written chain, without caps; N, C: chain ends. Non-standard residues stand in square brackets, D forms with d. Residues, ends and D or L forms follow the SMILES beside them. Cha = N[C@@H](CC1CCCCC1)C(=O)O; Dab = NCC[C@H](N)C(=O)O; Dap = NC[C@H](N)C(=O)O; Mpa = O=C(O)CCS

# COMPOUND, Kact
measured = [
    ("NCC[C@H](NC(=O)[C@@H]1CCCN1C(=O)[C@@H]1CSSCCC(=O)N[C@@H](Cc2ccc(O)cc2)C(=O)N[C@@H](Cc2ccccc2)C(=O)N[C@@H](CC2CCCCC2)C(=O)N[C@@H](CC(N)=O)C(=O)N1)C(=O)NCC(N)=O ([Mpa]YF[Cha]NCP[Dab]G-NH2; disulfide 1-6)", "174 nM"),
    ("CC(C)C[C@@H]1NC(=O)[C@H](Cc2ccccc2)NC(=O)[C@H](Cc2ccc(O)cc2)NC(=O)CCSSC[C@@H](C(=O)N2CCC[C@H]2C(=O)N[C@@H](CCCCN)C(=O)NCC(N)=O)NC(=O)[C@H](CC(N)=O)NC1=O ([Mpa]YFLNCPKG-NH2; disulfide 1-6)", "196 nM"),
    ("N=C(N)NCCC[C@H](NC(=O)[C@@H]1CCCN1C(=O)[C@@H]1CSSC[C@H](N)C(=O)N[C@@H](Cc2ccc(O)cc2)C(=O)N[C@@H](Cc2ccccc2)C(=O)N[C@@H](CCC(N)=O)C(=O)N[C@@H](CC(N)=O)C(=O)N1)C(=O)NCC(N)=O", "0.32 nM"),
    ("CC(C)C[C@@H]1NC(=O)[C@H](Cc2ccccc2)NC(=O)[C@H](Cc2ccc(O)cc2)NC(=O)CCSSC[C@@H](C(=O)N2CCC[C@H]2C(=O)N[C@@H](CN)C(=O)NCC(N)=O)NC(=O)[C@H](CC(N)=O)NC1=O ([Mpa]YFLNCP[Dap]G-NH2; disulfide 1-6)", "300 nM"),
]

* * *

biological target: Vasopressin V2 receptor (Rattus norvegicus) (UniProt Q00788); experiment: Activity at vasopressin V2 receptor in rat kidney membranes assessed as maximal adenylate cyclase activity relative to AVP; format: functional, cell membranes; settings: Membrane, filed as agonist
Sequence (Q00788 whole entry): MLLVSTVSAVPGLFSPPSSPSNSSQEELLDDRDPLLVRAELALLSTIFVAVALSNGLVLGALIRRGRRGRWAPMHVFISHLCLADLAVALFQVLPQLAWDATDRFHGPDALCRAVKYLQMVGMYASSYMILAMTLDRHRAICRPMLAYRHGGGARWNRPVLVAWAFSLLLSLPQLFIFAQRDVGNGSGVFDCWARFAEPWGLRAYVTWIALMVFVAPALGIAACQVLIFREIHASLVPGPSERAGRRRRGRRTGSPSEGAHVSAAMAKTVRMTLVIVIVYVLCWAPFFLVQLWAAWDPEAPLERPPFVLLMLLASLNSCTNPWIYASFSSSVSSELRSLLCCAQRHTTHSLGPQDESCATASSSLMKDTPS
Positions of bridges follow the written chain, without caps; N, C: chain ends. Non-standard residues stand in square brackets, D forms with d. Residues, ends and D or L forms follow the SMILES beside them. Cha = N[C@@H](CC1CCCCC1)C(=O)O; Dab = NCC[C@H](N)C(=O)O; Dap = NC[C@H](N)C(=O)O; Mpa = O=C(O)CCS

# COMPOUND, READOUT_UNITS, Activity
measured = [
    ("NCC[C@H](NC(=O)[C@@H]1CCCN1C(=O)[C@@H]1CSSCCC(=O)N[C@@H](Cc2ccc(O)cc2)C(=O)N[C@@H](Cc2ccccc2)C(=O)N[C@@H](CC2CCCCC2)C(=O)N[C@@H](CC(N)=O)C(=O)N1)C(=O)NCC(N)=O ([Mpa]YF[Cha]NCP[Dab]G-NH2; disulfide 1-6)", "%", 75),
    ("CC(C)C[C@@H]1NC(=O)[C@H](Cc2ccccc2)NC(=O)[C@H](Cc2ccc(O)cc2)NC(=O)CCSSC[C@@H](C(=O)N2CCC[C@H]2C(=O)N[C@@H](CCCCN)C(=O)NCC(N)=O)NC(=O)[C@H](CC(N)=O)NC1=O ([Mpa]YFLNCPKG-NH2; disulfide 1-6)", "%", 76),
    ("NC(=O)CNC(=O)[C@H](CCCN=C(N)N)NC(=O)[C@@H]1CCCN1C(=O)[C@@H]1CSSCCC(=O)N[C@@H](Cc2ccc(O)cc2)C(=O)N[C@@H](Cc2ccccc2)C(=O)N[C@@H](CC2CCCCC2)C(=O)N[C@@H](CC(N)=O)C(=O)N1 ([Mpa]YF[Cha]NCPRG-NH2; disulfide 1-6)", "%", 86),
    ("CC(C)C[C@@H]1NC(=O)[C@H](Cc2ccccc2)NC(=O)[C@H](Cc2ccc(O)cc2)NC(=O)CCSSC[C@@H](C(=O)N2CCC[C@H]2C(=O)N[C@@H](CN)C(=O)NCC(N)=O)NC(=O)[C@H](CC(N)=O)NC1=O ([Mpa]YFLNCP[Dap]G-NH2; disulfide 1-6)", "%", 97),
]

Sourced from ChEMBL document CHEMBL1141418
